Where do these numbers come from? They come from ChEMBL document CHEMBL5325418.

Organism: Homo sapiens
experiment: Selectivity ratio of Ki for displacement of [3H]DADLE from human DOR expressed in CHO cell membranes to Ki for displacement of [3H]U69593 from human KOR expressed in HEK cell membranes
measured endpoint: Ratio Ki

compound	measured
COC(=O)C(Cc1cccc(OC)c1I)NC(=O)CNCc1ccccc1 (stereo not drawn)	> 36
COc1cccc(CC2NC(=O)CN(Cc3ccccc3)C2=O)c1C (stereo not drawn)	> 17
COC(=O)C(Cc1cccc(OC)c1I)NC(=O)[C@@H](N)Cc1ccccc1 (mixture of isomers)	> 5

----------
Measured Intrinsic clearance by item
experiment: Metabolic stability in Sprague-Dawley rat liver microsomes assessed as intrinsic clearance at 100 uM measured upto 24 hrs in presence of NADPH by LC-MS/MS analysis
Assay type: ADME, Microsome

molecule	Intrinsic clearance
COc1cccc(CC2NC(=O)CN(Cc3ccccc3)C2=O)c1I (stereo unspecified)	381.8 µL/min/mg
COc1cccc(CC2NC(=O)CN(Cc3ccccc3)C2=O)c1C (stereo unspecified)	337.2 µL/min/mg
COc1cc(CC2NC(=O)CN(Cc3ccccc3)C2=O)c(I)c(OC)c1 (stereo unspecified)	390.5 µL/min/mg
COC(=O)C(Cc1cccc(OC)c1I)NC(=O)CNCc1ccccc1 (stereo unspecified)	1928 µL/min/mg
COC(=O)C(Cc1cccc(C)c1I)NC(=O)CNCc1ccccc1 (stereo unspecified)	1889 µL/min/mg
COC(=O)C(Cc1cccc(OC)c1C)NC(=O)CNCc1ccccc1 (stereo unspecified)	1112 µL/min/mg
